Values from ChEMBL document CHEMBL4725466

This section presents molecules with their documented IC50 values.
# measurement target: PI3-kinase p110-alpha/p85-alpha (Homo sapiens, UniProt P42336)
# Sequence (P27986 whole entry): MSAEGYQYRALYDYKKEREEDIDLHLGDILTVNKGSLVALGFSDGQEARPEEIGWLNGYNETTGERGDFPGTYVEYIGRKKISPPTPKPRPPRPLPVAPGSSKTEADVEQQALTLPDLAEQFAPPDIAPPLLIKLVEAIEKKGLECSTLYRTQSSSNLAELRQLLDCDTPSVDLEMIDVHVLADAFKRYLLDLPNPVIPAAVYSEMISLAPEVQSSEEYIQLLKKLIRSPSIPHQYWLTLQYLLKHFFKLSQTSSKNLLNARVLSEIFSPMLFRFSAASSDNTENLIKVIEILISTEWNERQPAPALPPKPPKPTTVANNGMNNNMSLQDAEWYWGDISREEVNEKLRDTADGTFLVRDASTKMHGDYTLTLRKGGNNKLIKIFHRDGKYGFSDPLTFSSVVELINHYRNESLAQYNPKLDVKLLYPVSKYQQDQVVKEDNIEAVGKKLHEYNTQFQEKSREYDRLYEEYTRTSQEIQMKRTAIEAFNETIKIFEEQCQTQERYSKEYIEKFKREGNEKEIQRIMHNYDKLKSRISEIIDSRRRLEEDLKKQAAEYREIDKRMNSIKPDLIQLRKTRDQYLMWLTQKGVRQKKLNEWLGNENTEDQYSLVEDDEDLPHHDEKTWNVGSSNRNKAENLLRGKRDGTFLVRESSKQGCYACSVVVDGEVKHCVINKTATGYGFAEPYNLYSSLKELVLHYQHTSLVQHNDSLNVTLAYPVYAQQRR
# Sequence (P42336 whole entry): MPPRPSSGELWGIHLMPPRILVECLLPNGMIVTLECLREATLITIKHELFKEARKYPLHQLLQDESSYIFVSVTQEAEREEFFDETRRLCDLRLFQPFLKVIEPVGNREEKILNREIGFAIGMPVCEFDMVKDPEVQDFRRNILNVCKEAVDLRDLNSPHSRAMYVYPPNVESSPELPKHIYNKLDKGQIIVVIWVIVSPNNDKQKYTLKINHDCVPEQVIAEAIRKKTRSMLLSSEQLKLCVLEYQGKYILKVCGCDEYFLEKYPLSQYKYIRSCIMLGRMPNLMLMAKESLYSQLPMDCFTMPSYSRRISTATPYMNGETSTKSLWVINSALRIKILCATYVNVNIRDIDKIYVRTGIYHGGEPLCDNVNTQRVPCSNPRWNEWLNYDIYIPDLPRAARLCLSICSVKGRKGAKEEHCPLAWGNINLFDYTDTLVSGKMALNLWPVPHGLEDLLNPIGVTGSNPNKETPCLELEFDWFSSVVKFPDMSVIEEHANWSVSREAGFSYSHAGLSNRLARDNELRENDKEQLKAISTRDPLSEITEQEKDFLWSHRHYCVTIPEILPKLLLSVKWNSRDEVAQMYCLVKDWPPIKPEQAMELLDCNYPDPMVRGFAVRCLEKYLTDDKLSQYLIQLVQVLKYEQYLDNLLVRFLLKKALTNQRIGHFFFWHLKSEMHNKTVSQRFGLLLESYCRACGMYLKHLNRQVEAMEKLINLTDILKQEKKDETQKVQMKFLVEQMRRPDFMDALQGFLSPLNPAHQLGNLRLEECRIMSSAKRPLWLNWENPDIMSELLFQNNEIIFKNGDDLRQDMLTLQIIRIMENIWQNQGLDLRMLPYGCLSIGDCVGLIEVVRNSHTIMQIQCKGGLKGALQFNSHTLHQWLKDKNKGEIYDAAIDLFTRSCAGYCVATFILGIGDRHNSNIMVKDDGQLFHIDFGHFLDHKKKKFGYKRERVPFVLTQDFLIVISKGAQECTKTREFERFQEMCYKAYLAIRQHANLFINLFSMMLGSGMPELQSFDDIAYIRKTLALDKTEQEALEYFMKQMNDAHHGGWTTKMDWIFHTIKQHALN
# run description: Inhibition of human PI3K p110alpha/p85alpha using PIP2 as substrate incubated for 10 mins followed by ATP addition and measured after 30 mins in presence of 10 uM ATP by HTRF assay
Value expressed in nM; do not type the unit.

Recorded results for 3 molecules are shown here.
- mol: "O=C(Nc1ccc(-c2nc(N3CCOCC3)c3ccccc3n2)cc1)Nc1cncnc1"
  result unit: "nM"
  IC50: 114
- mol: "CNC(=O)c1ccc(NC(=O)Nc2ccc(-c3nc(N4CCOCC4)c4ccccc4n3)cc2)cc1"
  result unit: "nM"
  IC50: 2.5
- mol: "O=S(=O)(Nc1nccs1)c1ccc(Nc2nc(N3CCOCC3)c3ccccc3n2)cc1"
  result unit: "nM"
  IC50: 6900

**Query** # lookup: IC50 of "O=C(Nc1ccc(-c2nc(N3CCOCC3)c3ccccc3n2)cc1)Nc1ccc(S(=O)(=O)Nc2nccs2)cc1"
**Result** 26.1

**Query** So what's the measured IC50 for this one? "O=C(Nc1ccc(-c2nc(N3CCOCC3)c3ccccc3n2)cc1)Nc1cccc(CO)c1"
**Result** 7.2

**Query** Reported IC50, molecule "O=C(Nc1ccc(CO)cc1)Nc1ccc(-c2nc(N3CCOCC3)c3ccccc3n2)cc1" : ____
**Result** 2.4

**Query** IC50 for "O=C(NCCO)Nc1ccc(-c2nc(N3CCOCC3)c3ccccc3n2)cc1" ?
**Result** 185

**Query** // IC50 lookup, key: "O=C(Nc1ccc(CCO)cc1)Nc1ccc(-c2nc(N3CCOCC3)c3ccccc3n2)cc1"
**Result** 1.41

**Query** Fill in the blank: the reported IC50 of "CC(=O)Nc1ccc(NC(=O)Nc2ccc(-c3nc(N4CCOCC4)c4ccccc4n3)cc2)cc1" is ____.
**Result** 0.7

###

# Test system: MDA-MB-231
# run description: Antiproliferative activity against human MDA-MB-231 cells assessed as cell viability at 10 uM after 48 hrs by celltiter-glo 2D luminescent assay relative to control
# Type: functional
# condition parameters: read-out: Activity
quantity kind: viability at 10 µM (%)
Express your answer in %, writing the number without its unit.

**Query** Please report the recorded viability at 10 µM for "CC(=O)Nc1ccc(NC(=O)Nc2ccc(-c3nc(N4CCOCC4)c4ccccc4n3)cc2)cc1" .
**Result** 69

**Query** Consider the molecule shown here: "O=C(Nc1ccc(-c2nc(N3CCOCC3)c3ccccc3n2)cc1)Nc1cccc(CO)c1" What is its recorded viability at 10 µM?
**Result** 138

###

# run description: Half life in CD1 mouse liver microsomes at 1 uM incubated for 60 mins under shaking condition by LC-MS/MS analysis
# Assay type: ADME, Microsome
Strictly below 40 min in half-life at 1 µM: true (1). Otherwise: false (0).

Below are worked cases with known answers.
- mol: "O=C(Nc1ccc(-c2nc(N3CCOCC3)c3ccccc3n2)cc1)Nc1cccc(CO)c1"
  label class: "false (0)"
- mol: "O=C(Nc1ccc(-c2nc(N3CCOCC3)c3ccccc3n2)cc1)Nc1ccc(S(=O)(=O)Nc2nccs2)cc1"
  label class: "false (0)"
- mol: "CNC(=O)c1ccc(NC(=O)Nc2ccc(-c3nc(N4CCOCC4)c4ccccc4n3)cc2)cc1"
  label class: "false (0)"
- mol: "O=C(Nc1ccc(-c2nc(N3CCOCC3)c3ccccc3n2)cc1)Nc1ccc(S(=O)(=O)Nc2ccccc2)cc1"
  label class: "true (1)"
- mol: "O=C(Nc1ccc(CCO)cc1)Nc1ccc(-c2nc(N3CCOCC3)c3ccccc3n2)cc1"
  label class: "true (1)"

Moving on to the next compound.
**Query** Check if half-life at 1 µM falls below 40 min for "CS(=O)(=O)Nc1ccc(NC(=O)Nc2ccc(-c3nc(N4CCOCC4)c4ccccc4n3)cc2)cc1" .
**Result** false (0)
